# protocolDescription: Stability in human HeLa cell homogenate assessed as half life by LC-MS/MS analysis
# Format: ADME, cell-based
Where a SMILES comes first, the peptide text is derived from it. Bridges are numbered along the chain shown (N, C = ends). [ ]: non-standard residue; d: D form. hLeu = CC(C)CC[C@H](N)C(=O)O
recordedEndpoint: half-life (min)
Numbers only, in min.

What measured half-life goes with CC(=O)N[C@@H](CCCNC(=N)N)C(=O)N[C@@H](CCCNC(=N)N)C(=O)N[C@H]1CSSC[C@@H](C(=O)N[C@@H](CCCNC(=N)N)C(=O)N[C@@H](CCCNC(=N)N)C(N)=O)NC(=O)[C@H](C(C)C)NC(=O)[C@@H]2CCCN2C(=O)[C@H](CC(=O)O)NC(=O)[C@H](Cc2ccc(O)cc2)NC(=O)[C@H](CO)NC(=O)[C@H](CCC(C)C)NC(=O)[C@H](Cc2ccc(O)cc2)NC(=O)[C@H](CC(C)C)NC(=O)[C@@H]2CCCN2C1=O (Ac-RRCPLY[hLeu]SYDPVCRR-NH2; disulfide 3-13) ?
28
